Target: CFTR-mediated chloride transport (Homo sapiens, UniProt P13569)
Sequence (P13569 whole entry, looked up): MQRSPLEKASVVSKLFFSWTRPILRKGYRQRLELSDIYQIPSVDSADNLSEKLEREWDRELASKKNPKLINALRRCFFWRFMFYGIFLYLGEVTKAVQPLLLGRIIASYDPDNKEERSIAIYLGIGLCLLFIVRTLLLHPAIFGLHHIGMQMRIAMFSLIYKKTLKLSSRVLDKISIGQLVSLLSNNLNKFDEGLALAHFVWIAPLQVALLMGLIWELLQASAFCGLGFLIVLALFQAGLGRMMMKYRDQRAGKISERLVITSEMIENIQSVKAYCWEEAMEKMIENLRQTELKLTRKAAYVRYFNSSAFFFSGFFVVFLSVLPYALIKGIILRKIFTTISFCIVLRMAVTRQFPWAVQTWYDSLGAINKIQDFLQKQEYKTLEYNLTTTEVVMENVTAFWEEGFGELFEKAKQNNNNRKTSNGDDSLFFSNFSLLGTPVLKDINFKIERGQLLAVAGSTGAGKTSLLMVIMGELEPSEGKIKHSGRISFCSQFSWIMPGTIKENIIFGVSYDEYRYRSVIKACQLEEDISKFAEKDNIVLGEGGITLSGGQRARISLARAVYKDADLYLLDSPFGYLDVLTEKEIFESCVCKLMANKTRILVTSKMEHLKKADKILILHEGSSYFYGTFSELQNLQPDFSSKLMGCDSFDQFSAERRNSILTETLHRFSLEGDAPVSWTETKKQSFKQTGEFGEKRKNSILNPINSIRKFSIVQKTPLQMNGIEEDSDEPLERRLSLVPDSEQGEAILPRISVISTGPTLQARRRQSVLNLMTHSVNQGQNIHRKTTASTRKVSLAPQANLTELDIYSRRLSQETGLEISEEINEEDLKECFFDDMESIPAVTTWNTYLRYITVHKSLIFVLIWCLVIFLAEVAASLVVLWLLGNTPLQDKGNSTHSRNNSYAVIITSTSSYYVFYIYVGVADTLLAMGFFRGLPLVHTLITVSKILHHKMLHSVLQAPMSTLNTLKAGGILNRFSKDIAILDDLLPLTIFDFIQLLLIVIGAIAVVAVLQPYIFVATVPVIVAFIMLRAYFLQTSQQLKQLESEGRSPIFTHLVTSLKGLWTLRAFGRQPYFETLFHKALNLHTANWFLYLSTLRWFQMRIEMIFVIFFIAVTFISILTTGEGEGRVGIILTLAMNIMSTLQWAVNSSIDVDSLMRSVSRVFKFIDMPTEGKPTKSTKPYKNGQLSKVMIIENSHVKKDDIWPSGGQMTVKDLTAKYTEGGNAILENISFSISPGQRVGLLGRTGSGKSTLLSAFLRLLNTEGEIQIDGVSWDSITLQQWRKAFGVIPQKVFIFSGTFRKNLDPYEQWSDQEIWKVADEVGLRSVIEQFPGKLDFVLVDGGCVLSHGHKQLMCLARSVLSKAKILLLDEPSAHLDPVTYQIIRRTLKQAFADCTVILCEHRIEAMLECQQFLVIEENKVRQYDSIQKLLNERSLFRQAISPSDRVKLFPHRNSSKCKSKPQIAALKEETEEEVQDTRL
Settings: enteroid cells incubated with test compound 18-24 hours; acute 10 μM forskolin and 300 nM Compound III
pEC50: −log10 of the molar value.
Listing of entries alongside the reported pEC50.

{"columns": ["COMPOUND", "TEST_SYSTEM", "VALUE"],
 "data": [
  ["CC1(C)CC[C@H]2CCCCNc3cccc(n3)S(=O)(=O)NC(=O)c3ccc(-n4ccc(OCCC5(C(F)(F)F)CC5)n4)nc3N21 (single isomer, unassigned) [Compound 47]", "CFTR-mediated chloride transport (Homo sapiens, UniProt P13569)", "> 6.00"],
  ["CC1(C)C[C@H]2CCn3ccc(n3)S(=O)(=O)NC(=O)c3ccc(-n4ccc(OCCCC5(C(F)(F)F)CC5)n4)nc3N1C2 (single isomer, unassigned) [Compound 278]", "CFTR-mediated chloride transport (Homo sapiens, UniProt P13569)", "< 5.52"],
  ["CC1(C)C[C@@H]2CCCNc3cccc(n3)S(=O)(=O)NC(=O)c3ccc(N4CC[C@H](CCCC5(C(F)(F)F)CC5)C4=O)nc3N1C2 (single isomer, unassigned) [Compound 175]", "CFTR-mediated chloride transport (Homo sapiens, UniProt P13569)", "> 6.00"]
]}

Query: // lookup pEC50 for [2H]C1(CCOc2ccn(-c3ccc4c(n3)N3C[C@@H](CCCNc5cccc(n5)S(=O)(=O)NC4=O)CC3(C)C)n2)C2(CC2)C12CC2
Result: > 6.00

Query: Same lookup for CC1(C)C[C@@H]2CCCNc3cccc(n3)S(=O)(=O)NC(=O)c3ccc(-n4ccc(OCC[C@@H](O)C5(C(F)(F)F)CC5)n4)nc3N1C2 (single isomer, unassigned) [Compound 296] , please.
Result: > 6.00
